Tested on: MDR1 (Pgp) and BCRP
ASSAY NOTES: MDCK_MDR1_BCRP permeability and efflux
Format: in vitro ADME
CONDITION PARAMETERS: human
MEASUREMENT KIND: Papp A→B at 90 min, 0.1 μM (×10⁻⁶ cm/s)
API: value field is a number in ×10⁻⁶ cm/s; no unit string.

Papp A→B at 90 min, 0.1 μM value, target or system MDR1 (Pgp) and BCRP, for `CC(C)n1c(=O)n(C)c2cnc3cc(F)c(-c4ccc(OCCCN5CCCCC5)nc4)cc3c21` : 16.8

====

ASSAY NOTES: Plasma protein binding, dog
Format: in vitro ADME
CONDITION PARAMETERS: pH 7.4
MEASUREMENT KIND: fraction unbound at 16 h

response.value for `CC(C)n1c(=O)n(C)c2cnc3cc(F)c(-c4ccc(OCCCN5CCCCC5)nc4)cc3c21` (field: fraction unbound at 16 h) = 0.248
